Source listed as patent US6399541B1.

Below is a list of entries, each paired with its recorded degree of damage, Ipomoea value.
test system: Ipomoea; test: Pre-emergence test/greenhouse; assay type: in vivo; settings: 250 g of ai./ha, after three weeks
Numbers only; they are read as %.

A selection of reference data follows.
                                   molecule  system_under_test              quantity_name  recorded_number
0  CC(Nc1nc(N)nc(C(C)(C)F)n1)c1ccccc1 (racemic) [Example 13]            Ipomoea  degree of damage, Ipomoea               80
1  CC(Nc1nc(N)nc(C(F)(F)F)n1)c1ccccc1 (stereo not shown) [(A), reference compound]            Ipomoea  degree of damage, Ipomoea               20
2  CC(Cl)c1nc(N)nc(NC(C)c2ccccc2)n1 (racemic) [Example 18]            Ipomoea  degree of damage, Ipomoea               95

Now look at this one.
Q) Provide one value: measured degree of damage, Ipomoea of CC(F)c1nc(N)nc(NC(C)c2ccccc2)n1 (racemic) [Example 16]
A) 100
